tested on: Bacillus subtilis; assay: Antimicrobial activity against Bacillus subtilis NCIM 2063/ATCC 6633 at 25 ug/mL after 24 hrs by disc diffusion method; format: functional; conditions: NCIM 2063/ATCC 6633, 24 h, read-out: DIZ
endpoint.name: zone of inhibition at 25 µg/mL (mm)
Provide the reading as a plain figure in mm.

The following compounds have reported results that may help.
CC1=C(C(=O)Nc2ccc(C)cc2)C(c2ccc[nH]2)C(C(=O)Nc2ccc(C)cc2)=C(C)N1	11
CCc1ccc(C2C(C(=O)Nc3ccccc3)=C(C)NC(C)=C2C(=O)Nc2ccccc2)cc1	13
CC1=C(C(=O)Nc2ccccc2C)C(c2ccccn2)C(C(=O)Nc2ccccc2C)=C(C)N1	8
CC1=C(C(=O)Nc2ccccc2)C(c2ccco2)C(C(=O)Nc2ccccc2)=C(C)N1	14

# input for lookup
Exam item: State the recorded zone of inhibition at 25 µg/mL for this entry: CC1=C(C(=O)Nc2ccc(C)cc2)C(c2ccccn2)C(C(=O)Nc2ccc(C)cc2)=C(C)N1
Marked response: 10

Every entry's value here was drawn from ChEMBL document CHEMBL1770122.
